Values from paper PMC6089501

- target_of_assay: CYP 2D6 (Homo sapiens, UniProt P10635)
- Sequence (P10635 whole entry): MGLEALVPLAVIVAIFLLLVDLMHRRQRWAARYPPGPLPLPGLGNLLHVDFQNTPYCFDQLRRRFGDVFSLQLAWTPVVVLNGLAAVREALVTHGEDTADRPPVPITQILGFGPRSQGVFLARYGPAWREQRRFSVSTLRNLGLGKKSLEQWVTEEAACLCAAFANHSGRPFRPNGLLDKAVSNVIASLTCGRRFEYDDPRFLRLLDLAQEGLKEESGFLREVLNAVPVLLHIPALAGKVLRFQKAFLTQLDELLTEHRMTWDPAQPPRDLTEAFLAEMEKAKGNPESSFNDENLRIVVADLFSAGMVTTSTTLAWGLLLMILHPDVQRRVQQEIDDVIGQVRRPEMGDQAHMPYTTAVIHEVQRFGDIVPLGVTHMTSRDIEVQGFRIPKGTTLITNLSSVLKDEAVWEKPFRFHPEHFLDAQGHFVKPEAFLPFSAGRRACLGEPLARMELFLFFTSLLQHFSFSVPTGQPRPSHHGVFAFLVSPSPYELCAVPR
parameter: pIC50
Just so you know, pIC50 here is -log10 of the concentration in molar units; reply with that number alone.

Record NC(=O)c1sc(N2CCOCC2)cc1OCCc1ccccc1 . Reported pIC50: 5.00

----------
- target_of_assay: CYP2C19 (Homo sapiens)
- Sequence (P33261 whole entry): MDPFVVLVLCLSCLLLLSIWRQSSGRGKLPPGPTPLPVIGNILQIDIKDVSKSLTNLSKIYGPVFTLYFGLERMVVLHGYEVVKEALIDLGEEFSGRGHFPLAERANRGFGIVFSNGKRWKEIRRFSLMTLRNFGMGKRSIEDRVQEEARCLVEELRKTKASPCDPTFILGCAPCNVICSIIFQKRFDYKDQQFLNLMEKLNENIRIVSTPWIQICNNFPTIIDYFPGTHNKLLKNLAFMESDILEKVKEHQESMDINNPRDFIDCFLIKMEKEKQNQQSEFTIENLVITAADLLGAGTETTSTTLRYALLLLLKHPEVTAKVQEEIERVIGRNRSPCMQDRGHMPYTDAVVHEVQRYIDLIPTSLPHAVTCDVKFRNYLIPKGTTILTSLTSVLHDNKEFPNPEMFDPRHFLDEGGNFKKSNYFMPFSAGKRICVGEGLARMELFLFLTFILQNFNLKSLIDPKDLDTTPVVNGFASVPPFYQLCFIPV
- method_summary: in vitro
parameter: IC50 (nM)
Give just the number in nM; leave the unit off.

Record NC(=O)c1sc(N2CCOCC2)cc1OCCc1ccccc1 . Reported IC50: 1260

----------
- method_summary: physchem
- cond: pH 6
parameter: solubility (µg/mL)
Give just the number in µg/mL; leave the unit off.

Record NC(=O)c1cc(N2CCOCC2)ccc1OCCc1ccccc1 [Compound 55, 5-Morpholino-2-(2-phenylethoxy)benzamide] . Reported solubility: 300
